B1: SMTNL2 (parent)
chain: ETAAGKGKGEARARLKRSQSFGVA

Variants of: B1
Assay: protein stability index of a GFP-peptide fusion (GPS, HEK-293T) (PSI 1-6); higher = more stable;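 also: lentivirally expressed fusions sorted by FACS into six bins by GFP to DsRed ratio, PSI derived from sequencing read proportions per bin multiplied by bin number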
Conditions: c terminus: a fixed tail appended
measurement.name: protein stability index
API doc: respond with a numeric literal and nothing else, no unit.

input: Read the entry ETAAGKGKGGARARLKRSQSFGVA [E10G] and write its reported protein stability index.
output: 4.49

input: State its protein stability index: ETAAGKGKGEARARLKRSQSFPVA [G22P]
output: 5.71

input: Give protein stability index for the following variant: ETAAGKGKGEARARLKRSRSFGVA [Q19R]
output: 4.3

input: Tell me its protein stability index given ETAAKKGKGEARARLKRSQSFGVA [G5K] as the entry.
output: 4.8

input: Give the value of protein stability index reported for the following: ETAAGKGKGEARARLKRSKSFGVA [Q19K]
output: 4.46

input: Hello, please tell me recorded protein stability index for this one: ETAAGKGKGEARARLKRSQSFGWA [V23W]
output: 3.96

input: Dear colleague, please send me the reported protein stability index for ETAAGKGKGEAIARLKRSQSFGVA [R12I] when you can.
output: 3.95

input: Respond only with protein stability index recorded for ETAAGKGKGEARARLKRSQSFGVS [A24S]
output: 4.65

input: Give the reported protein stability index for this variant. PTAAGKGKGEARARLKRSQSFGVA [E1P]
output: 4.09

input: Please supply the value of reported protein stability index for the item ETATGKGKGEARARLKRSQSFGVA [A4T]
output: 4.67

input: Return the recorded protein stability index value; entry: ETAAGKGKGEARARLKRSQSFGHA [V23H]
output: 5.02

input: Annotate the variant ETNAGKGKGEARARLKRSQSFGVA [A3N] with its measured protein stability index.
output: 4.74

input: Name the recorded protein stability index of the variant listed here: ETAAGKGKGEARARLKMSQSFGVA [R17M]
output: 4.09

input: Please look at this variant and report its protein stability index: ETAAGKGGGEARARLKRSQSFGVA [K8G]
output: 3.96

input: Dear colleague, please send me the reported protein stability index for ETAAGKGKGEARLRLKRSQSFGVA [A13L] when you can.
output: 4.11

input: Return protein stability index (reported value) for this variant: ETAAGKGKGEARARLKRSQSFFVA [G22F]
output: 2.84

input: Identify protein stability index associated with the variant ETTAGKGKGEARARLKRSQSFGVA [A3T]
output: 4.65

input: Using known records, supply protein stability index for ETAAGKGKGEHRARLKRSQSFGVA [A11H]
output: 4.49

input: Output measured protein stability index for this item: ETAAGKGKGEALARLKRSQSFGVA [R12L]
output: 4.24

input: Report protein stability index for ETAAGKGFGEARARLKRSQSFGVA [K8F]
output: 4.29

input: Please indicate protein stability index recorded for ETAAGKGKGEARARLKRSQSYGVA [F21Y]
output: 4.65

input: Look up and report measured protein stability index for this entry: ETAAGKGKGEKRARLKRSQSFGVA [A11K]
output: 4.74

Origin of measurements: the supplement of paper PMC10567573
